Test: protease stability score; higher = more stable; yeast display proteolysis, trypsin and chymotrypsin;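 note: relative to predicted unfolded state with 0 unfolded-like and 1 meaning tenfold more protease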
quantity.kind: protease stability score
Answer as a number with no unit attached.

biopolymer.sequence: TEDDRIFKEALELWVFAMNTGDERILFEMVDPHVRFVIGDKEYHGMEWRHKVLIELRIHRVRLEITHRDQFNGRIHIDGILQIDGEFNGRRDKTETEVRVTYTKFDGKWYYKEVIHL
quantity.kind: protease stability score
readout.number: 1.44

Looking for the measured protease stability score of EENREITEKIMRHWLTLFLTGDFERLIELMDPEVKFLIDGRELHGWEVWRKLMTLTIRRYKNIRIHITSIDVFENHTHVETYENVNGVHIDTRLNLFLVNGRIQSIEMDTK , can you help?
1.7

Looking for the measured protease stability score of SEDEKIAEHLMHEISRSTQTGDEEMSRRLMDPNVRIDINGKQIHGWETWQKEVERVDHSHSRFQLRDVRSQGNYLDARGEFHLDLHINGRTVHIVYDVTFIILKIDGRWFLHSIKVR , can you help?
0.519

Looking for the measured protease stability score of SEQEKELQDALEILMHRWLTGDEDFLYEMMDPNVRFTINGQDFHGRDFFRQKWKELGLTRVEIDLKFVRLQGDKATVHGHINFNGRTTDVIMYIDKVNGVWITKTIEFR , can you help?
2.17

Looking for the measured protease stability score of REDEEMAEKISEFIFHVLETGDEKSNHENIDPNARTHIGDKHSHGRENVTRMMDWWMHFLGVKHIEKKDLEIQGNFAFLHSISVVGDKTFEIDVTALKVNGQWVFKKFQVN , can you help?
1.64

Looking for the measured protease stability score of SEEERQSREFFKKWIHYMLTGDEHQIHTLADPNVRVVINGKEHHGRERLYELVLEFHHRLQNATSRVHTQDSVVIDGRLELHMELRVHQGDKEDTFQIRQLVVKIDGVWHSKSFEVE , can you help?
1.61

Looking for the measured protease stability score of REEDEQLKRFTDEFIQVQRTGNEDLLREYADPNVKIVVGDKELHGREEMLYVFREIRVHNSELKRMHIIDGRAEVHVTAHVRQGDKVIEVKLHIIIYKIDGRWVIESMQWE , can you help?
1.01

Looking for the measured protease stability score of DEEKKSSDIAIHESLRVLKTGDEHDISEMMDPHVRIDINGREIIGMELASEIHHEIMNRIKNVRIEVKDRKLVNGQIILRGELRWNGQTVELEVTLKKINGKWWMESLHVR , can you help?
0.606

Looking for the measured protease stability score of DEERKEYEDALTLFIEYLLTGDFERLEHLADPTTRLIVNGQEFHGRELVMRQLLEIRFHDHKLHDYKVVNGVAILDTRDRGIINGQETIFKTHIVLQKIDGRWVLRRYEIR , can you help?
1.38

Looking for the measured protease stability score of SEIEERVYRVVETFWMALRTGDEETLDDLLDPNVKLDIDGKEFHGREKYKEFLELFKGVTVESVEFRDSKISGEKAIIHVHVTLRQGDKEEHKSTELVLYKINGRWIIEHVRLK , can you help?
2.21

###

Recorded protease stability score for the following sequences
Assay: protease stability score; higher = more stable; yeast display proteolysis, trypsin and chymotrypsin;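 note: relative to predicted unfolded state with 0 unfolded-like and 1 meaning tenfold more protease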
Answer as a number with no unit attached.

biopolymer.sequence: REDEREAEEFLRKLLHDIRTGDEESISRMIDPHVRVIYNGVEVIGRERALEVFKKFLEEIRIDTYHVHKVDMINGKMHADTRLRWEINGQRDTSTMLIVVEKVNGRWFLHSVVIS
protease stability score: 1.97
--
biopolymer.sequence: SEERAKKVAKKLMEAFVKGNKDDAKDALQEDVQLHIAGTTYHGPKAVEKLIEFWQRVGVEVKVQEVRVKGNHVEIQTQVHLGDNTTTVRYKIQVEGDKVKKLQLNFSEEVFKQAKDG
protease stability score: 2
--
biopolymer.sequence: DEDEENIRKEVEIFKHLLETGNEQEMSKLADPNTRFYYGDKTIHGREEMIKFLHEEWRHLGVKHNEYRVKEMRSINGRAIIHGELIWKSENEIIHRDVLIIARKVDGKWVSESVHVH
protease stability score: 1.23
--
biopolymer.sequence: REEEEESQKATEHQLHSLRTGDWRSIERLLDPNTRMEINGVDSVGREYVLELFRRWLEEAGINHIELKSYEVFNGKLEIHSEVHYDGRTIKVINIVIKVNGRWLLHHVHIEDL
protease stability score: 0.561
--
biopolymer.sequence: TEEEDRLREIAELIHKFLTTGDWEKIFRMLDPHVRVEIHVNGRDIIIHGWKNVHRLLEYELEELRFHQSDVHELRVQGDKAHSITEWDGVIDGRRQNLHVNVHFVTVDGRIRSIKFEFR
protease stability score: 1.57
--
biopolymer.sequence: DEMEREVEKWVRIYLHALRTGDERILENMVDPEARTHINGRHDHGRDSLHKILKEMGFDHMHVEIRDVRVVNGQIHLEEIIRVDVDGRRITITVEVVIVKIDGRWIVKSFHIR
protease stability score: 1.17
--
biopolymer.sequence: DEHHEFSRTATEMWIHFMETGDEHDLRNLIDPNVKTKVGDKHHHGREFLVKWLLTFMERADHVEIRLNDIKLQGDKIHIEGRLIIIVGDKEIHIHVERDIIKVNGRWVVHSVIFR
protease stability score: 1.21
--
biopolymer.sequence: DEDEEEIKRMIEEWFRSLVTGDEHQLKELMDPHVRLDINGVEHIGREEIVERLVKEARQADHMEFRVRDVRLVGDYAEIDGELIVNYNGREKSIETRIILWKFNGRWIDHQVHYK
protease stability score: 1.03

Looking for the measured protease stability score of DEDEKRVEHTERFLSHSRRTGDEETLETMFDPNAKNIIDGRIFIGREFVEIWVRKFKNATEDLKVEEIRVQGNKVELVGNLFVQVGDKRYELDTRIEMTKIDGRWIIHRIEFR , can you help?
1.21

Looking for the measured protease stability score of DEQEQHAFKFFEHHTEILKTGDWEEVRKNLDPHVRLHVNGVEMHGMEHATELALKEDTEIRSELRLEDVDVQGDKVRFDIRLIYHIGDKTIVHKIDLVMIKINGRWLVHSIHVE , can you help?
0.36

Looking for the measured protease stability score of SEDEIARHILHKMMTGDEDSFEELLDPNARLIVGNKHSHGRERVIEDWKRDLELAGFKHSEVKRIHFQGEKSHVHGHINVNGKEYRVLFILVIVNGRLKEVELHVTDEREEKYLHRTWE , can you help?
0.007
